Each item that follows carries a reported Max. Fit.
Target: 17β-HSD10 (Homo sapiens)
Construct: Histev (histidine tag with TEV site) (N, cleaved yes); made in house; host or cells: E. coli BL21-CodonPlus
Sequence (Q99714 whole entry): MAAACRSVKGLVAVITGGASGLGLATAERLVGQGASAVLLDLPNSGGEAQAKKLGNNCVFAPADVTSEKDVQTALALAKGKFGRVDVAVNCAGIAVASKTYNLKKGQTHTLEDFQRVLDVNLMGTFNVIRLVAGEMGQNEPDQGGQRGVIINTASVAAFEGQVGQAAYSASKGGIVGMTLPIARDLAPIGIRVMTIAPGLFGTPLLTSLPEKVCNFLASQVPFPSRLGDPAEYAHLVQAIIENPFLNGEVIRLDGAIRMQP
Assay: 17β-HSD10 (ABAD) enzyme inhibition assay, NADH oxidation read at 340 nm (primary screen and dose response)
Format: biochemical
Details: recombinant 17βHSD10 enzyme assay, curve fit
property_measured: Max. Fit

{"columns": ["compound", "property_measured", "numeric_value"],
 "data": [
  ["CC(C)CN(C(=O)c1ccc(F)cc1F)c1cccc(N(C)Cc2c[nH]cn2)c1", "Max. Fit", 97],
  ["COc1ccccc1-c1ccccc1[C@@H]1CCCN1C(=O)c1sccc1C", "Max. Fit", 100],
  ["O=C(c1sccc1Cl)N1CCC[C@H]1c1ccccc1-c1cccc2[nH]ncc12 (racemic)", "Max. Fit", 98],
  ["Cc1ccsc1C(=O)N1CCC[C@H]1c1ccccc1-c1ccc(Cl)cc1Cl", "Max. Fit", 96],
  ["Cc1ccc(C(=O)N(CC(C)C)c2cccc(N(C)Cc3cnc[nH]3)c2)cc1", "Max. Fit", 99],
  ["Cc1ccsc1C(=O)N1CCC[C@@H]1c1ccccc1-c1cn[nH]c1", "Max. Fit", 98],
  ["CC(C)CN(C(=O)c1ccccc1F)c1cccc(N(C)Cc2c[nH]c(C(C)C)n2)c1", "Max. Fit", 100],
  ["CC(C)CN(C(=O)c1ccc(Cl)cc1)c1cccc(N(C)Cc2cnc[nH]2)c1", "Max. Fit", 97],
  ["COc1ccccc1C(=O)N(CC(C)C)c1cccc(N(C)Cc2c[nH]cn2)c1", "Max. Fit", 97],
  ["COc1cccc(-c2ccccc2[C@@H]2CCCN2C(=O)c2sccc2C)c1OC", "Max. Fit", 99],
  ["CC(C)CN(C(=O)CCc1ccccc1)c1cccc(N(C)Cc2cnc[nH]2)c1", "Max. Fit", 100],
  ["O=C(c1sccc1Cl)N1CCC[C@H]1c1ccccc1-c1ccc(F)c(O)c1 (single isomer, unassigned) [ESC1002839]", "Max. Fit", 96],
  ["CNC(=O)CN(C)c1cccc(N(CC(C)C)C(=O)c2ccccc2F)c1", "Max. Fit", 100],
  ["CN(Cc1c[nH]cn1)c1cccc(N(CC2CCC2)C(=O)c2ccccc2F)c1", "Max. Fit", 99],
  ["COc1ccc(-c2ccccc2[C@@H]2CCCN2C(=O)c2sccc2Cl)cc1OC (racemic)", "Max. Fit", 95],
  ["Cc1ccsc1C(=O)N1CCC[C@@H]1c1ccccc1-c1c[nH]nc1C(F)(F)F", "Max. Fit", 90]
]}

Data origin: patent US20260132123A1
